# test: in vitro
# condition_parameters: human, hek293t cells
Give measured viability at 48 h, 25 µM for each item. Keep answers brief.
Lab book: enter the figure in %, no units written.

*Q* # viability at 48 h, 25 µM lookup, item C=CC(=O)Nc1c(C)ccn2ncnc12 [2-M08]
*A* 92

*Q* # viability at 48 h, 25 µM lookup, item C=CC(=O)NCCNC(=O)C1CC12CCSCC2 (stereo not drawn) [2-O06]
*A* 88.3

*Q* # viability at 48 h, 25 µM lookup, item CC(Cl)C(=O)NC1(c2noc(C(F)F)n2)CCC1 (stereo not drawn) [6-B15]
*A* 91.8

====

Give measured viability at 48 h, 25 µM for each item. Keep answers brief.
# test: in vitro
# condition_parameters: human, hek293t cells
Lab book: enter the figure in %, no units written.

*Q* # viability at 48 h, 25 µM lookup, item `N#CC(=Cc1c(F)cccc1F)C(=O)Nc1ccccc1Cl`
*A* 114

*Q* # viability at 48 h, 25 µM lookup, item `C=CC(=O)N(CC1CCOCC1)C1CC1`
*A* 88

*Q* # viability at 48 h, 25 µM lookup, item C=CC(=O)Nc1cccc(C(O)C(F)(F)F)c1 (stereo not drawn)
*A* 102

*Q* # viability at 48 h, 25 µM lookup, item C=CC(=O)NC(C)C(c1ccccc1Cl)n1cccn1 (stereo not drawn)
*A* 84.5

*Q* # viability at 48 h, 25 µM lookup, item C=CC(=O)NCc1ccc(C(=O)N2CCC(c3nc(C)no3)C2)cc1 (stereo not drawn)
*A* 52.5

*Q* # viability at 48 h, 25 µM lookup, item `O=C(CCl)Cc1cccc(F)c1`
*A* 38.4

*Q* # viability at 48 h, 25 µM lookup, item CC(C1CC1)N(CC(F)(F)F)C(=O)CCl (stereo not drawn)
*A* 90.7

*Q* # viability at 48 h, 25 µM lookup, item `C[C@@H](NC(=O)CCl)c1ccc(F)cc1`
*A* 129

*Q* # viability at 48 h, 25 µM lookup, item C=CC(=O)N(Cc1cc(F)cc(Cl)c1)C(C)C1CCOCC1 (stereo not drawn)
*A* 110

*Q* # viability at 48 h, 25 µM lookup, item `C=CC(=O)Nc1ccnc(OC2CCCCC2)c1`
*A* 0.76

*Q* # viability at 48 h, 25 µM lookup, item CC(Cl)C(=O)N1CCC(n2nnc3c2CCCC3)CC1 (stereo not drawn)
*A* 90

*Q* # viability at 48 h, 25 µM lookup, item CCOC(=O)c1ccccc1NC(=O)CCl [4-B17, ethyl 2-(2-chloroacetamido)benzoate]
*A* 45.3

====

# test: in vitro
# condition_parameters: human, hek293t cells
recorded_endpoint: viability at 48 h, 25 µM (%)
Lab book: enter the figure in %, no units written.

*Q* # viability at 48 h, 25 µM lookup, item `C=CC(=O)NCCc1nc(-c2ccccc2)nn1C`
*A* 87.7

*Q* # viability at 48 h, 25 µM lookup, item `O=C(CCl)NCCOc1ccc2ccccc2c1`
*A* 0.0621

*Q* # viability at 48 h, 25 µM lookup, item `C=CC(=O)N1CCN(C(=O)c2ccc(OC)c(OC)c2OC)CC1`
*A* 80

*Q* # viability at 48 h, 25 µM lookup, item `COc1ccc(OC)c(NC(=O)CCl)c1`
*A* 0.314

*Q* # viability at 48 h, 25 µM lookup, item `O=C(CCl)Nc1ccccc1OC(F)F`
*A* 0.7

*Q* # viability at 48 h, 25 µM lookup, item `COC(=O)c1ccc2[nH]cc(C(=O)CCl)c2c1`
*A* 3.01

*Q* # viability at 48 h, 25 µM lookup, item `O=C(CCl)Nc1ccc(-c2ccccc2)cc1`
*A* 0.814

*Q* # viability at 48 h, 25 µM lookup, item CCc1ccc(C(NC(=O)CCl)c2cccc(F)c2)cc1 (stereo not drawn)
*A* 0.508

*Q* # viability at 48 h, 25 µM lookup, item `C=CC(=O)N[C@H](C)c1ccccc1OC(C)C`
*A* 82.5

*Q* # viability at 48 h, 25 µM lookup, item C=CC(=O)NC(C)c1ccc(-n2nc(C)cc2C)c(F)c1 (stereo not drawn)
*A* 76.1

*Q* # viability at 48 h, 25 µM lookup, item `CC(=O)Nc1ccc(NC(=O)C(C#N)=Cc2cc(F)ccc2F)cc1`
*A* 57.6

*Q* # viability at 48 h, 25 µM lookup, item Cc1noc(CC(NC(=O)CCl)c2ccccc2)n1 (stereo not drawn)
*A* 29.3

*Q* # viability at 48 h, 25 µM lookup, item `N#CC(=Cc1c[nH]c2ccccc12)C(=O)Nc1ccc2c(c1)OCCO2`
*A* 101

*Q* # viability at 48 h, 25 µM lookup, item CC(Cl)C(=O)N1CC(Cc2cccs2)C1 (stereo not drawn)
*A* 88.8

*Q* # viability at 48 h, 25 µM lookup, item `CN(c1ccccc1)S(=O)(=O)c1cccc(NC(=O)CCl)c1`
*A* 0.751

*Q* # viability at 48 h, 25 µM lookup, item `O=C(c1ccccc1)c1cc(Cl)ccc1N1C(=O)C=CC1=O`
*A* 48.7

*Q* # viability at 48 h, 25 µM lookup, item `C=CC(=O)N1CCC(C(=O)Nc2nc3cc(F)ccc3n2CC)CC1`
*A* 62.5

*Q* # viability at 48 h, 25 µM lookup, item C=CC(=O)N1CCC(C(=O)N[C@H]2CC[C@@H](CC#N)C2)CC1 (racemic)
*A* 71.9

*Q* # viability at 48 h, 25 µM lookup, item `C=CC(=O)N(Cc1c2c(nn1C)CCOC2)c1cc(C)cc(C)c1`
*A* 57.4

*Q* # viability at 48 h, 25 µM lookup, item CC(Cl)C(=O)NCC(=O)Nc1ccc2c[nH]nc2c1 (stereo not drawn)
*A* 97

*Q* # viability at 48 h, 25 µM lookup, item `C=CC(=O)NCc1ccsc1-n1cccc1`
*A* 153

*Q* # viability at 48 h, 25 µM lookup, item `COc1ccc(NC(C)=O)cc1NC(=O)CCl`
*A* 1.44

*Q* # viability at 48 h, 25 µM lookup, item `COC(=O)c1c(C(=O)CCl)c(C)n(C(C)C)c1C`
*A* 71.2

*Q* # viability at 48 h, 25 µM lookup, item `Cc1ccc(NC(=O)CN2CCN(C(=O)CCl)CC2)cc1`
*A* 0.854

*Q* # viability at 48 h, 25 µM lookup, item CC(Cl)C(=O)NC(C)c1nnc2n1CCCC2 (stereo not drawn)
*A* 105

*Q* # viability at 48 h, 25 µM lookup, item O=C(CCl)Nc1ccccc1Cc1ccccc1 [4-N22, N-(2-benzylphenyl)-2-chloroacetamide]
*A* 0.906

*Q* # viability at 48 h, 25 µM lookup, item C=CC(=O)N1CCC(C(=O)NC(C)(c2noc(C)n2)C2CC2)CC1 (stereo not drawn)
*A* 79.8

*Q* # viability at 48 h, 25 µM lookup, item `CN(C)S(=O)(=O)c1ccc(Cl)c(NC(=O)CCl)c1`
*A* 0.99

*Q* # viability at 48 h, 25 µM lookup, item `CSc1ccc(C=C(C#N)C(=O)Nc2cccc(Cl)c2C)cc1`
*A* 103

*Q* # viability at 48 h, 25 µM lookup, item C=CC(=O)NC1CCCN(C2CCCCC2)C1=O (stereo not drawn)
*A* 92.1

*Q* # viability at 48 h, 25 µM lookup, item `N#CC(=Cc1ccsc1)C(=O)Nc1ccccc1Cl`
*A* 150

*Q* # viability at 48 h, 25 µM lookup, item `C=CC(=O)N1CCC(C(=O)N2Cc3ccccc3C[C@H]2C(N)=O)CC1`
*A* 29.6

*Q* # viability at 48 h, 25 µM lookup, item `C=CC(=O)N1CCC(C(=O)Nc2cc(Cl)ccc2SCC)CC1`
*A* 111

====

# test: in vitro
# condition_parameters: human, hek293t cells
Give measured viability at 48 h, 25 µM for each item. Keep answers brief.
Lab book: enter the figure in %, no units written.

*Q* # viability at 48 h, 25 µM lookup, item `C=CC(=O)NCCC(=O)N1CCC(O)(c2c(F)cccc2F)CC1`
*A* 60

*Q* # viability at 48 h, 25 µM lookup, item `COc1cc(C=C(C#N)C(=O)Nc2cccc(Cl)c2)cc(O)c1O`
*A* 72.4

*Q* # viability at 48 h, 25 µM lookup, item O=C(CCl)N1N=C(c2cccc(F)c2)CC1c1cccs1 (stereo not shown)
*A* 0.0972

*Q* # viability at 48 h, 25 µM lookup, item O=C(CCl)NOCc1ccccc1 [4-H22, N-(benzyloxy)-2-chloroacetamide]
*A* 63.3

====

# test: in vitro
# condition_parameters: human, hek293t cells
Give measured viability at 48 h, 25 µM for each item. Keep answers brief.
Lab book: enter the figure in %, no units written.

*Q* # viability at 48 h, 25 µM lookup, item CCN(CC(=O)NC1CCS(=O)(=O)C1)C(=O)CCl (centres unmarked)
*A* 1.33

*Q* # viability at 48 h, 25 µM lookup, item `CC(C)n1ccnc1C(=O)CCl`
*A* 20.4

*Q* # viability at 48 h, 25 µM lookup, item CC(Cl)C(=O)N1CCN(c2nnnn2-c2ccccc2)CC1 (centres unmarked)
*A* 74.2

*Q* # viability at 48 h, 25 µM lookup, item `O=C(CCl)N(Cc1ccccc1)Cc1ccc(F)cc1`
*A* 0.621

*Q* # viability at 48 h, 25 µM lookup, item CC(Cl)C(=O)NC(=O)NCc1cccs1 (centres unmarked)
*A* 106

*Q* # viability at 48 h, 25 µM lookup, item `C=CC(=O)NC1(c2cc(C)no2)CCOCC1`
*A* 68.5

*Q* # viability at 48 h, 25 µM lookup, item `Cn1cc(C=C(C#N)C(=O)NCCc2ccccc2)cn1`
*A* 101

*Q* # viability at 48 h, 25 µM lookup, item `N#CCCN(C(=O)CCl)c1cccc(Cl)c1`
*A* -0.154

*Q* # viability at 48 h, 25 µM lookup, item `C=CC(=O)N1CC(c2cc(CO)on2)C1`
*A* 103

*Q* # viability at 48 h, 25 µM lookup, item `N#CC(=Cc1ccccc1[N+](=O)[O-])C(=O)Nc1ccc2c(c1)OCCO2`
*A* 108

*Q* # viability at 48 h, 25 µM lookup, item `C=CC(=O)NC(C)(C)c1nc(-c2ccccc2F)c(C)s1`
*A* 73.5

*Q* # viability at 48 h, 25 µM lookup, item CC(Cl)C(=O)NCc1cccc(N2C(=O)NC3(CCCC3)C2=O)c1 (centres unmarked)
*A* 103

*Q* # viability at 48 h, 25 µM lookup, item C=CC(=O)N1CC2(CCCC2)CC1CO (centres unmarked)
*A* 82.4

*Q* # viability at 48 h, 25 µM lookup, item CC(Cl)C(=O)N1CCC(NS(=O)(=O)c2cccs2)CC1 (centres unmarked)
*A* 99.7

*Q* # viability at 48 h, 25 µM lookup, item C=CC(=O)NC(c1ccc(F)cc1)c1nccn1C (centres unmarked)
*A* 45.3

*Q* # viability at 48 h, 25 µM lookup, item CCc1nsc(N2CCCN(C(=O)C(C)Cl)CC2)n1 (centres unmarked)
*A* 84.3

*Q* # viability at 48 h, 25 µM lookup, item `COc1ccc2cc(C=C(C#N)C(=O)NCc3ccccc3)ccc2c1`
*A* 108

*Q* # viability at 48 h, 25 µM lookup, item CC(Cl)C(=O)N1CCC(c2nccn2C)C1 (centres unmarked)
*A* 98.6

*Q* # viability at 48 h, 25 µM lookup, item `CC(C)(CNC(=O)CCl)CC1CCOCC1`
*A* 130

*Q* # viability at 48 h, 25 µM lookup, item `C=CC(=O)N1CCC(C(=O)N2CCC[C@H]2c2ncn[nH]2)CC1`
*A* 81.3

*Q* # viability at 48 h, 25 µM lookup, item `CC(=O)NCCc1cc(C(=O)CCl)ccc1F`
*A* 37.8

*Q* # viability at 48 h, 25 µM lookup, item `C=CC(=O)N(Cc1ccc(-n2cncn2)cc1)C1CC1`
*A* 40.7

*Q* # viability at 48 h, 25 µM lookup, item `N#CC(=Cc1ccc2c(c1)OCO2)C(=O)NCc1ccco1`
*A* 119

*Q* # viability at 48 h, 25 µM lookup, item `N#CC(=Cc1cnn(CCCl)c1)C(=O)NC1CCCCC1`
*A* 109

*Q* # viability at 48 h, 25 µM lookup, item CC(Cl)C(=O)Nc1ccc2c(c1)ncn2-c1ccccc1 (centres unmarked)
*A* 105

*Q* # viability at 48 h, 25 µM lookup, item `Cc1cc(C=C(C#N)C(=O)Nc2cnn(C)c2)c(C)n1C1CCCCC1`
*A* 96.1

*Q* # viability at 48 h, 25 µM lookup, item C=CC(=O)N1CCC(C(=O)N2CCCC(c3cnn(C)c3)C2)CC1 (centres unmarked)
*A* 99.6

*Q* # viability at 48 h, 25 µM lookup, item `C=CC(=O)N(Cc1cn(C2CCC2)nn1)c1ccc(F)cc1`
*A* 37.6

*Q* # viability at 48 h, 25 µM lookup, item `C=CC(=O)N(Cc1cc(-c2ccco2)n(C)n1)C1CCCCC1`
*A* 83.8

*Q* # viability at 48 h, 25 µM lookup, item `O=C(CCl)Nc1nc(-c2cc(F)ccc2F)cs1`
*A* 0.065

*Q* # viability at 48 h, 25 µM lookup, item CC1CC(NC(=O)C(C)Cl)=NO1 (centres unmarked)
*A* 97.1

*Q* # viability at 48 h, 25 µM lookup, item C=CC(=O)N1CCC(C(=O)N[C@H]2CC[C@@H]2O)(c2ccccc2)CC1 (racemic)
*A* 104

This collection of values is drawn from paper PMC11995724.
